TESTED SYSTEM: Focal adhesion kinase 1 (Homo sapiens)
EXPERIMENTAL PROTOCOL: small-molecule microarray binders of FAK, primary screen, biochemical, 635/667 nm fluorescence, BSA, DTT (AID 1130);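 note: composite of spot emission at 667 nm and signal to noise over triplicate slides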
CONDITION SUMMARY: PTK2 binding, 635 nm fluorescence, higher = more signal
RESULT TYPE: composite z-score

| COMPOUND | RESULT TYPE | MEAS VALUE |
| --- | --- | --- |
| CCCNC(=O)OC[C@H]1O[C@H](CCON=C(C)CCC(=O)OC[C@H]2O[C@H](c3ccccc3)C=C[C@@H]2Oc2ccc(OC)cc2)C=C[C@@H]1Oc1ccc(OC)cc1 | composite z-score | -0.447 |
| COc1ccc(O[C@H]2C=C[C@@H](c3ccccc3)O[C@@H]2CON=C(C)CCC(=O)OC[C@H]2O[C@H](c3ccccc3)C=C[C@@H]2Oc2ccc(OC)cc2)cc1 | composite z-score | -0.204 |
| COc1ccc(O[C@H]2C=C[C@@H](c3ccccc3)O[C@@H]2COC(=O)CCC(C)=NOC(C)CN2CCCc3nc(C)c(C)cc32)cc1 (some centres undefined) | composite z-score | 0.0304 |
| COC(=O)CC=C[C@@H](C)[C@@H](C=NO[C@@H]1O[C@H](COC(C)=O)[C@@H](OC(C)=O)[C@H](OC(C)=O)[C@H]1OC(C)=O)NS(=O)(=O)c1ccc(C)cc1 | composite z-score | 0.14 |
| C=CC[C@@H]1C=C[C@H](ON=C(C)CCN2CCc3nc(-c4ccccc4)c(-c4ccccc4)cc3C2)[C@@H](CO)O1 | composite z-score | -0.372 |
| CCOC(=O)NN=C1C[C@@H](O)[C@@H](O)[C@@H]2[C@@H]3C(=O)N([C@@H](C)c4ccccc4)C(=O)[C@@H]3CC[C@@H]12 | composite z-score | 0.692 |
| Cc1cc2c(nc1C)CCCCN2CC(C)ON=C[C@@H](C)[C@H](OCc1ccccc1)C(C)C (some centres undefined) | composite z-score | -0.69 |
| COC(=O)CC=C[C@@H](C)[C@@H](C=NO[C@@H](C)c1cn([C@H](CO)Cc2ccccc2)nn1)OC | composite z-score | -0.0296 |
| CC(C)=CCCC(C)=CCON=C1C[C@@H](O)[C@@H](O)[C@@H]2[C@@H]3C(=O)N(C(C)(C)C)C(=O)[C@@H]3CC[C@H]12 | composite z-score | -0.0868 |
| CCOC(=O)CCN1C(=O)[C@H]2[C@H]3[C@H](O)[C@H](O)CC(=NOCc4ccccc4)[C@H]3CC[C@H]2C1=O | composite z-score | -0.017 |
| Cn1c(=O)n2n(c1=O)[C@H]1[C@H](O)[C@@H]3O[C@@H]3C(=O)[C@H]1CC2 | composite z-score | -0.515 |
| C#CCCCON=C1C[C@@H](O)[C@@H](O)[C@@H]2[C@@H]3C(=O)N(CC)C(=O)[C@@H]3CC[C@@H]12 | composite z-score | -0.229 |
| CCOC(=O)[C@H](CC(C)C)NC(=O)CCC1CC(OC(=O)NCc2ccc3c(c2)OCO3)CC2(CCCC(COC(=O)NCC3CCCCC3)O2)O1 (some centres undefined) | composite z-score | -0.217 |
| CO[C@@H]1COC(=O)CC=C[C@H](C)[C@H](OC)COC(=O)[C@H](C)NC(=O)CC=C[C@H]1C | composite z-score | -0.289 |
